assay-explanation: Antiproliferative against HLF1 cells measured after 48 hrs by CCK8 assay
Format: toxicity, cell-based
measurement-conditions: human, HFL1 cells (description prints HLF1)
parameter-measured: IC50 at 48 h (µM)
Response body: numeric value in µM, unit text excluded.

Record excerpt, results attached:
substance-smiles | IC50 at 48 h (µM)
Cn1nc(C(F)(F)F)c2cc(C(=O)Nc3cccc(-c4nncn4C4CCCC4)n3)c(OCc3ccccc3F)nc21 | 7.99
O=C(Nc1cccc(-c2nncn2C2CC2)n1)c1cc(-c2ccc3scnc3c2)cn(Cc2ccccc2F)c1=O | 68.3

Sure, the documented IC50 at 48 h for O=C(Nc1cccc(-c2nncn2C2CC2)n1)c1cc(-c2cnn(C3CCC3)c2)cn(Cc2ccccc2F)c1=O is 10.7
